Hey, just so you know, these numbers are from patent US20230192834A1.

Target: TGFβ1 (R&D Systems)
Sequence (P01137 279-390): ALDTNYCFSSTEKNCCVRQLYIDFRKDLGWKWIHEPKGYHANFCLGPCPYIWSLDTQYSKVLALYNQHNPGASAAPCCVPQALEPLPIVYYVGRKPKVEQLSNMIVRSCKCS
Measurement description: cell-based or functional assay
Readout kind: TGFb1 IC50 (SMAD3 phosphorylation in CMVICs, AlphaLISA) (µg/mL)
Write the answer as a number in µg/mL, unit excluded.

Below: 5 binders and their reported TGFb1 IC50 (SMAD3 phosphorylation in CMVICs, AlphaLISA).
1) Caninized anti-TGFβ1,2,3 antibody VH4.11 - VL3 (antibody, V domains shown) VH: QVQLVQSGAEVKKPGSSVKVSCKASGYTFSSNVISWVRQAPGKGLQWVGGVIPIVDIANYAQRFKGRVTLTADTSTNTVYMELSNLRTEDTAVYYCARTLGLVLDAMDYWGQGTLVTVSS VL: EIVMTQSPASLSLSQEEKVTITCRASQSLGSSYLAWYQQKPGQAPKLLIYGASSRAPGVPSRFSGSGSGTDFSFTISSLEPEDVAVYYCQQYADSPITFGQGTKLEIKR = 1.01
2) Caninized anti-TGFβ1,2,3 antibody VH4.5 - VL1 (antibody, V domains shown) VH: EVQLVESGGDLVKPAGSLRLSCVASGYTFSSNVMSWVRQAPGKGLQWVGYVIPIVDIANYADAVKGRFTISRDNAKNTLYLQMNSLRVEDTAVYYCTRTLGLVLDAMDYWGQGTLVTVSS VL: ETVLTQSPGTLSLSPGERATLSCRASQSLGSSYLAWYQQKPGQAPRLLIYGASSRAPGIPDRFSGSGSGTDFTLTISRLEPEDFAVYYCQQYADSPITFGQGTRLEIKR = 0.122
3) Felinized anti-TGFβ1,2,3 antibody VH2.1 - VL3 (antibody, V domains shown) VH: QVLLVQSGADVRKPGASVKIFCKASGYTFTSNVISWVRQTPAQGFEWMGGVIPIVDIANYAQRFKGRLVLTADTSTNTAYMELRSLKSADTAVYYCASTLGLVLDAMDYWGQGSLVTVSS VL: EIQMTQSPSSLSASPGDRVTITCRASQSLGSSYLAWYQQKPGKVPKLLIYGASSRAPGVPSRFSGSGSGTDFTLTISSLEPEDAATYYCQQYADSPITFGQGTKLEIKR = 0.597
4) Felinized anti-TGFβ1,2,3 antibody VH2.1 - VL8 (antibody, V domains shown) VH: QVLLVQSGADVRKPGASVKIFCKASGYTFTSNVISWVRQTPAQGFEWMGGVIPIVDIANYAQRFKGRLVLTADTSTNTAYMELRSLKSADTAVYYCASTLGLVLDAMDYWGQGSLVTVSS VL: DIVMTQSPGSLAGSPGQQVTMNCRASQSLGSSYLAWYQQKPGQHPELLIYGASSRAPGVPDRFSGSGSGTDFTLTISNLQAEDVANYYCQQYADSPITFGQGTKLEIKR = 0.266
5) Caninized anti-TGFβ1,2,3 antibody VH3.5 - VL2 (antibody, V domains shown) VH: EVQLVQSAAEVKKPGASVKVSCKTSGYIFISNVISWVQQAPGAGLEWMGGVIPIVDIANYAQRFKGRVTLTADTSTNTVYMELSNLRTEDTAVYYCASTLGLVLDAMDYWGQGTLVTVSS VL: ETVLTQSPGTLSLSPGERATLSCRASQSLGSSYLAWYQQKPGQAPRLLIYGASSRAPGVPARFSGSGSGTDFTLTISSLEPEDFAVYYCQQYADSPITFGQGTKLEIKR = 0.083

Field TGFb1 IC50 (SMAD3 phosphorylation in CMVICs, AlphaLISA) (entry Caninized anti-TGFβ1,2,3 antibody VH3.1 - VL2 (ZTS-122) (antibody, V domains shown) VH: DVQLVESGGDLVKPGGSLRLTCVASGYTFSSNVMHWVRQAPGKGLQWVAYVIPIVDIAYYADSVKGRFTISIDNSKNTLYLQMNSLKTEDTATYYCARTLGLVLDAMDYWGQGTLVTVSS VL: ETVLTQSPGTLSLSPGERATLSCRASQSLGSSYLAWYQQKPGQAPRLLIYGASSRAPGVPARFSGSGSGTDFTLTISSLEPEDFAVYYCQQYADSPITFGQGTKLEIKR ) reads 0.061

Caninized anti-TGFβ1,2,3 antibody VH4.5 - VL2 (ZTS-207) (antibody, V domains shown) VH: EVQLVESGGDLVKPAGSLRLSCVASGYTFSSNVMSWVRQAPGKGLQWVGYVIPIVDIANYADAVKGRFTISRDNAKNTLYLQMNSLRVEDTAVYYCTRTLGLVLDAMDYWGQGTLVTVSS VL: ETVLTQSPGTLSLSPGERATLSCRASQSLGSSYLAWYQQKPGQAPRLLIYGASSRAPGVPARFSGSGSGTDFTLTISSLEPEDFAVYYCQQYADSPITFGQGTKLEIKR has a reported TGFb1 IC50 (SMAD3 phosphorylation in CMVICs, AlphaLISA) of 0.06

Measured TGFb1 IC50 (SMAD3 phosphorylation in CMVICs, AlphaLISA), Caninized anti-TGFβ1,2,3 antibody VH4.11 - VL2 (antibody, V domains shown) VH: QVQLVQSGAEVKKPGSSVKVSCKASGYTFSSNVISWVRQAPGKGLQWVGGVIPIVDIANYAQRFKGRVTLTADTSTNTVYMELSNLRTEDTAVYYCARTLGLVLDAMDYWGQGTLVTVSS VL: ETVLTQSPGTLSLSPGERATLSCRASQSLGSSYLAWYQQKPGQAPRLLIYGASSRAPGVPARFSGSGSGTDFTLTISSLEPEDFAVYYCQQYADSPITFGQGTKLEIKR : 0.164

# binder Caninized anti-TGFβ1,2,3 antibody VH5.6 - VL2 (antibody, V domains shown) VH: EVQLVESGGDLVKPGGSLRLSCVASGFTFSSNVISWVRQAPGQGLEWMGGVIPIVDIANYAQRFKGRVTITADESTSTTYMELSSLRSEDTAVYYCASTLGLVLDAMDYWGQGTLVTVSS VL: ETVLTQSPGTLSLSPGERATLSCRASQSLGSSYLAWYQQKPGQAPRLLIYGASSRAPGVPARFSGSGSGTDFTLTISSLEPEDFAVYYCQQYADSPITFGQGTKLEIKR ; its TGFb1 IC50 (SMAD3 phosphorylation in CMVICs, AlphaLISA) = 0.019

Value of TGFb1 IC50 (SMAD3 phosphorylation in CMVICs, AlphaLISA) reported for the binder Caninized anti-TGFβ1,2,3 antibody VH3.1 - VL3 (antibody, V domains shown) VH: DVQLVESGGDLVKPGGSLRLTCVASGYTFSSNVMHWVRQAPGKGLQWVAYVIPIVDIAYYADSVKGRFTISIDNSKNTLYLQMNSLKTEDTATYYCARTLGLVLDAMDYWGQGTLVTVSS VL: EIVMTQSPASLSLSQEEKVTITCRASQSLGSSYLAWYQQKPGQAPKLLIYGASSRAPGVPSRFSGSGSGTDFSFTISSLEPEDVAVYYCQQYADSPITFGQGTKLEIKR is 0.134
